experiment notes: clinical
condition set: human, in vivo, inhaled or intranasal, 0.88 mg
Counter-ions that a name gives are not always drawn.
observed property: Cmax

Entry CN1C[C@H](C(=O)N[C@]2(C)O[C@@]3(O)[C@@H]4CCCN4C(=O)[C@H](Cc4ccccc4)N3C2=O)C[C@@H]2c3cccc4[nH]cc(c34)C[C@H]21 [DHE, dihydroergotamine mesylate] , Cmax reported as 4.29 ng/mL

----------
experiment notes: clinical
condition set: human, in vivo, iv, 1 mg
Structures can show the parent of a compound that is named as a salt.
observed property: Cmax (ng/mL)
# number only, unit ng/mL dropped from output

Entry CN1C[C@H](C(=O)N[C@]2(C)O[C@@]3(O)[C@@H]4CCCN4C(=O)[C@H](Cc4ccccc4)N3C2=O)C[C@@H]2c3cccc4[nH]cc(c34)C[C@H]21 [DHE, dihydroergotamine mesylate] , Cmax reported as 53.2
